system: human lung squamous carcinoma cells (NCI-H226); assay: scratch assay, migration of NCI-H226 cells; format: cell-based; conditions: NCI-H226, 10 μM, 48 hours; control group 65.31 ± 3.19
Ends that are not written are not given here. PEG = not defined here
Item-by-item account of Migration rate (%) (mean ± SD, P)

- substance: "N31: SEQ ID NO: 1 with deletion of positions 3, 4, 11 and 15-18 and PEG modification at the carboxyl terminal (YRFLAKENTQD-{PEG}; reading uncertain)"
  Migration rate (%) (mean ± SD, P): "15.70 ± 8.17,*** %"
- substance: "N41: SEQ ID NO: 1 with addition of two amino acids at the amino terminal, deletion of position 18, PEG at the carboxyl terminal (FRYRVRFLAKENVTQDAED-{PEG}; reading uncertain)"
  Migration rate (%) (mean ± SD, P): "15.30 ± 8.69,*** %"
- substance: "N24: SEQ ID NO: 1 with substitution A7R, deletion of positions 1-2 and of position 18 (VRFLRKENVTQDAED)"
  Migration rate (%) (mean ± SD, P): "15.74 ± 8.70,*** %"
- substance: "N20: SEQ ID NO: 1 with addition of one amino acid at the amino terminal and deletion of position 18 (RYRVRFLAKENVTQDAED)"
  Migration rate (%) (mean ± SD, P): "19.54 ± 6.51,*** %"

Hello, please tell me recorded Migration rate (%) (mean ± SD, P) for this one: N7: SEQ ID NO: 1 with addition of one amino acid at the carboxyl terminal and substitution A15R (YRVRFLAKENVTQDREDNC)
18.83 ± 4.53,*** %

----------
System: human prostate cancer cells (22RV1)
Test: scratch assay, migration of 22RV1 cells
Type: cell-based
Conditions: 22RV1, 10 μM, 48 hours; control group 25.41 ± 5.01
Method: In the scratch assay, the cell migration rate was negatively correlated with the inhibitory effect of the drug component on tumor cell migration ability. […] ImageJ software was used to count the migration distance of the cells, and the cell migration rate was calculated as: cell migration rate (%)=(width of original scratch−width of current scratch)/width of original scratch×100. […]
Ends that are not written are not given here. PEG = not defined here
Item-by-item account of Migration rate (%) (mean ± SD, P)

- substance: "N38: SEQ ID NO: 1 with one amino acid added at each terminal and PEG modification at the carboxyl terminal (FYRVRFLAKENVTQDAEDNC-{PEG}; reading uncertain)"
  Migration rate (%) (mean ± SD, P): "7.73 ± 1.58,** %"
- substance: "N34: SEQ ID NO: 1 with A15R, addition of one amino acid at the carboxyl terminal, PEG modification at the amino terminal ({PEG}-YRVRFLAKENVTQDREDNC; reading uncertain)"
  Migration rate (%) (mean ± SD, P): "5.00 ± 2.29,** %"
- substance: "N43: SEQ ID NO: 1 with addition of one amino acid at the amino terminal, deletion of position 18, PEG at the carboxyl terminal (RYRVRFLAKENVTQDAED-{PEG}; reading uncertain)"
  Migration rate (%) (mean ± SD, P): "6.57 ± 1.35,** %"

Hello, please tell me recorded Migration rate (%) (mean ± SD, P) for this one: N21: SEQ ID NO: 1 with deletion of positions 1-5 and 15-18 and addition of one amino acid at the amino terminal (SLAKENVTQD)
12.79 ± 3.06,* %

----------
Item-by-item account of Number of cells (mean ± SD, P), invaded cells
tested on: human pancreatic cancer cells (PANC-1); assay: transwell invasion assay, PANC-1 cells; assay type: cell-based; settings: PANC-1 transwell invasion, 10 μM, 24 hours; control group 727 ± 68
Ends that are not written are not given here. PEG = not defined here

Some substances with known Number of cells (mean ± SD, P), invaded cells results, for comparison:
- substance: "N34: SEQ ID NO: 1 with A15R, addition of one amino acid at the carboxyl terminal, PEG modification at the amino terminal ({PEG}-YRVRFLAKENVTQDREDNC; reading uncertain)"
  reportedResult: "346 ± 30,***"
- substance: "N54: SEQ ID NO: 1 with A7R, addition of two amino acids and PEG modification at the carboxyl terminal (YRVRFLRKENVTQDAEDNTC-{PEG}; reading uncertain)"
  reportedResult: "231 ± 26,****"
- substance: "N6: SEQ ID NO: 1 with deletion of four amino acids at the carboxyl terminal (positions 15-18) (YRVRFLAKENVTQD)"
  reportedResult: "110 ± 5,****"
- substance: "N14: SEQ ID NO: 1 with deletion of positions 1-5 and addition of one amino acid at the carboxyl terminal (LAKENVTQDAEDNC)"
  reportedResult: "157 ± 37,****"
- substance: "N40: SEQ ID NO: 1 with deletion of positions 1-5 and 15-18, PEG at the amino terminal, two amino acids added at the carboxyl terminal ({PEG}-LAKENVTQDRC; reading uncertain)"
  reportedResult: "273 ± 21,****"

Hello, please tell me recorded Number of cells (mean ± SD, P), invaded cells for this one: N8: SEQ ID NO: 1 with deletion of positions 15-18 and positions 3, 4 and 11 (YRFLAKENTQD)
65 ± 16,****

Hello, please tell me recorded Number of cells (mean ± SD, P), invaded cells for this one: N17: SEQ ID NO: 1 with addition of two amino acids to the carboxyl terminal (YRVRFLAKENVTQDAEDNCT)
95 ± 6,****

Hello, please tell me recorded Number of cells (mean ± SD, P), invaded cells for this one: N45: SEQ ID NO: 1 with V11R, deletion of positions 1-5 and 15-18, PEG modification at the carboxyl terminal (LAKENRTQD-{PEG}; reading uncertain)
358 ± 23,***

Hello, please tell me recorded Number of cells (mean ± SD, P), invaded cells for this one: N29: SEQ ID NO: 1 with deletion of positions 1-5 and 15-18 and PEG modification at the amino terminal ({PEG}-LAKENVTQD; reading uncertain)
213 ± 17,****

Hello, please tell me recorded Number of cells (mean ± SD, P), invaded cells for this one: N5: SEQ ID NO: 1 with addition of one amino acid at the carboxyl terminal and deletion of positions 1-3 (RFLAKENVTQDAEDNC)
109 ± 7,****

Hello, please tell me recorded Number of cells (mean ± SD, P), invaded cells for this one: N35: SEQ ID NO: 1 with A15R, addition of one amino acid and PEG modification at the carboxyl terminal (YRVRFLAKENVTQDREDNC-{PEG}; reading uncertain)
358 ± 23,***

----------
System: human prostate cancer cells (22RV1)
Assay: scratch assay, migration of 22RV1 cells
Format: cell-based
Conditions: 22RV1, 10 μM, 48 hours; control group 25.41 ± 5.01
Protocol: In the scratch assay, the cell migration rate was negatively correlated with the inhibitory effect of the drug component on tumor cell migration ability. […] ImageJ software was used to count the migration distance of the cells, and the cell migration rate was calculated as: cell migration rate (%)=(width of original scratch−width of current scratch)/width of original scratch×100. […]
Ends that are not written are not given here. PEG = not defined here
Item-by-item account of Migration rate (%) (mean ± SD, P)

- substance: "N47: SEQ ID NO: 1 with N18R, deletion of positions 1-2, one amino acid added and PEG at the carboxyl terminal (VRFLAKENVTQDAEDRC-{PEG}; reading uncertain)"
  testedTarget: "human prostate cancer cells (22RV1)"
  Migration rate (%) (mean ± SD, P): "5.92 ± 2.53,** %"

Hello, please tell me recorded Migration rate (%) (mean ± SD, P) for this one: N52: SEQ ID NO: 1 with N18R, addition of two amino acids and PEG modification at the carboxyl terminal (YRVRFLAKENVTQDAEDRCT-{PEG}; reading uncertain)
5.43 ± 1.97,** %

----------
assay: effect on coagulation function in mice (ACT); format: in vivo, C57BL/6J mice; conditions: 200 mg/kg tail vein once a day until Day 24, blood on Day 25; control group 73.50 ± 7.15
Ends that are not written are not given here. PEG = not defined here
Item-by-item account of Activated clotting time (s) (mean ± SD)
Just the number in s, nothing appended.

Some substances with known Activated clotting time (s) (mean ± SD) results, for comparison:
- substance: "N2: SEQ ID NO: 1 with deletion of one amino acid (position 18) at the carboxyl terminal (YRVRFLAKENVTQDAED)"
  measurementUnit: "s"
  Activated clotting time (s) (mean ± SD): 74.82
- substance: "N9: SEQ ID NO: 1 with deletion of positions 15-18 and PEG modification at the amino terminal ({PEG}-YRVRFLAKENVTQD; reading uncertain)"
  measurementUnit: "s"
  Activated clotting time (s) (mean ± SD): 72.09
- substance: "N3: SEQ ID NO: 1 with deletion of position 18 and PEG modification at the amino terminal ({PEG}-YRVRFLAKENVTQDAED; reading uncertain)"
  measurementUnit: "s"
  Activated clotting time (s) (mean ± SD): 72.55
- substance: "N1: polypeptide with the amino acid sequence set forth in SEQ ID NO: 1 (YRVRFLAKENVTQDAEDN)"
  measurementUnit: "s"
  Activated clotting time (s) (mean ± SD): 73.64

Hello, please tell me recorded Activated clotting time (s) (mean ± SD) for this one: N11: SEQ ID NO: 1 with deletion of positions 15-18 and 1-3 and PEG modification at the amino terminal ({PEG}-RFLAKENVTQD; reading uncertain)
75.18
